measurement.target: human serum albumin (HSA) (Homo sapiens)
Construct: purchased Sigma-Aldrich Chemical Co. (Schnelldorf, Germany)
assay.procedure: HSA fluorescence quenching binding study
settings: HSA 2.5 µM, 298 K

given.smiles: CCn1cc(C(=O)[O-])c(=O)c2ccc(C)nc21.CCn1cc(C(=O)[O-])c(=O)c2ccc(C)nc21.O.O.O.O.[OH-].[Sm+3]
n2 (Hill Coefficient), HSA: 1.34
--
given.smiles: CCn1cc(C(=O)[O-])c(=O)c2ccc(C)nc21.CCn1cc(C(=O)[O-])c(=O)c2ccc(C)nc21.CCn1cc(C(=O)[O-])c(=O)c2ccc(C)nc21.O.O.O.O.O.O.O.O.[La+3]
n2 (Hill Coefficient), HSA: 1.18
--
given.smiles: CCn1cc(C(=O)[O-])c(=O)c2ccc(C)nc21.CCn1cc(C(=O)[O-])c(=O)c2ccc(C)nc21.O.[OH-].[Tb+3]
n2 (Hill Coefficient), HSA: 1.52
--
given.smiles: CCn1cc(C(=O)O)c(=O)c2ccc(C)nc21
n2 (Hill Coefficient), HSA: 1.33
--
given.smiles: CCn1cc(C(=O)[O-])c(=O)c2ccc(C)nc21.CCn1cc(C(=O)[O-])c(=O)c2ccc(C)nc21.O.O.O.O.[Gd+3].[OH-]
n2 (Hill Coefficient), HSA: 1.20
--
given.smiles: CCn1cc(C(=O)[O-])c(=O)c2ccc(C)nc21.CCn1cc(C(=O)[O-])c(=O)c2ccc(C)nc21.O.O.O.O.[Eu+3].[OH-]
n2 (Hill Coefficient), HSA: 1.14
--
given.smiles: CCn1cc(C(=O)[O-])c(=O)c2ccc(C)nc21.CCn1cc(C(=O)[O-])c(=O)c2ccc(C)nc21.O.O.O.[La+3].[OH-]
n2 (Hill Coefficient), HSA: 1.32

* * *

measurement.target: human serum albumin (HSA) (Homo sapiens, UniProt P02768)
Construct: purchased Sigma-Aldrich Chemical Co. (Schnelldorf, Germany)
Sequence (P02768 25-609): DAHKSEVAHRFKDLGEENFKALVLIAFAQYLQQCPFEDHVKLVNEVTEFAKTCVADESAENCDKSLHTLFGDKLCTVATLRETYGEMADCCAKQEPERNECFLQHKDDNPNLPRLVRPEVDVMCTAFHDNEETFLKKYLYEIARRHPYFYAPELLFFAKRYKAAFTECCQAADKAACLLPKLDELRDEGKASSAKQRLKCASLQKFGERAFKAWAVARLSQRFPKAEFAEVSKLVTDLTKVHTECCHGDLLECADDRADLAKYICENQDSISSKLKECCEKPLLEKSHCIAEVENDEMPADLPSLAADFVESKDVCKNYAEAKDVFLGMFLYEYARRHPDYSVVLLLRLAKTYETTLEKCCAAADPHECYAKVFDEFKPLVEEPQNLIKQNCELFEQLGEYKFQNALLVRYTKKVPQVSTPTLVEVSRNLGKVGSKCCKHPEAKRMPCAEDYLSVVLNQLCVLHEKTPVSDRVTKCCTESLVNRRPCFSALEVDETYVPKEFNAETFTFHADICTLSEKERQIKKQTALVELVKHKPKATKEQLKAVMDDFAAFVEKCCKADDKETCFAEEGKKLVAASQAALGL
assay.procedure: HSA fluorescence quenching binding study
settings: HSA 2.5 µM, 298 K; read-out: Kd (dissociation constant), HSA
readout: Kd (µM)

molecule: CCn1cc(C(=O)[O-])c(=O)c2ccc(C)nc21.CCn1cc(C(=O)[O-])c(=O)c2ccc(C)nc21.O.[OH-].[Tb+3] [Tb(nal)2, Tb(C12H11N2O3)2(OH)(H2O)·1.5H2O]
readout: Kd
readout.number: 3.99

molecule: CCn1cc(C(=O)[O-])c(=O)c2ccc(C)nc21.CCn1cc(C(=O)[O-])c(=O)c2ccc(C)nc21.CCn1cc(C(=O)[O-])c(=O)c2ccc(C)nc21.O.O.O.O.O.O.O.O.[La+3] [La(nal)3, La(C12H11N2O3)3(H2O)2·6H2O]
readout: Kd
readout.number: 2.91

molecule: CCn1cc(C(=O)[O-])c(=O)c2ccc(C)nc21.CCn1cc(C(=O)[O-])c(=O)c2ccc(C)nc21.O.O.O.O.[Gd+3].[OH-] [Gd(nal)2, Gd(C12H11N2O3)2(OH)(H2O)·3H2O]
readout: Kd
readout.number: 4.79

molecule: CCn1cc(C(=O)[O-])c(=O)c2ccc(C)nc21.CCn1cc(C(=O)[O-])c(=O)c2ccc(C)nc21.O.O.O.O.[OH-].[Sm+3] [Sm(nal)2, Sm(C12H11N2O3)2(OH)(H2O)·3H2O]
readout: Kd
readout.number: 3.6

molecule: CCn1cc(C(=O)O)c(=O)c2ccc(C)nc21 [Nalidixic acid]
readout: Kd
readout.number: 5.69

molecule: CCn1cc(C(=O)[O-])c(=O)c2ccc(C)nc21.CCn1cc(C(=O)[O-])c(=O)c2ccc(C)nc21.O.O.O.O.[Eu+3].[OH-] [Eu(nal)2, Eu(C12H11N2O3)2(OH)(H2O)·3H2O]
readout: Kd
readout.number: 4.63

molecule: CCn1cc(C(=O)[O-])c(=O)c2ccc(C)nc21.CCn1cc(C(=O)[O-])c(=O)c2ccc(C)nc21.O.O.O.[La+3].[OH-] [La(nal)2, La(C12H11N2O3)2(OH)(H2O)·2H2O]
readout: Kd
readout.number: 3.35
